The measurements presented in this section are drawn from patent US20260055096A1.

System: Diamond back moth (Plutella xylostella)
Experiment: Example B.8: Action on diamond back moth (Plutella xylostella), egg and larval mortality on insect diet in microtiter plates
Assay type: in vivo
Conditions: 25 ppm; comparative experiment vs prior art compounds; egg and larval mortality
Protocol: For evaluating control of diamond back moth (Plutella xylostella) the test unit consisted of 96-well-microtiter plates containing an insect diet and 15-25 P. xylostella eggs. The compounds or mixtures were formulated using a solution containing 75% water and 25% DMSO. Different concentrations of formulated compounds or mixtures were sprayed onto the insect diet at 5 μl, using a custom-built micro atomizer, at two replications. […] Egg and larval mortality was then visually assessed.
Listing: egg and larval mortality of selected compounds

COMPOUND | egg and larval mortality
CC(C)c1ccccc1N1C(=O)CS/C1=N\C(=O)Nc1ccc(-c2nc(NC(=O)c3ccc(OC(F)(F)F)cc3)n(C)n2)cc1 | 75
CC(C)c1ccccc1N1C(=O)CS/C1=N\C(=O)Nc1ccc(-c2nc(Nc3cccc(OC(F)(F)F)c3)n(C)n2)cc1 [EP3974414 I-006, reference compound] | 38
CC(C)c1ccccc1N1C(=O)CS/C1=N\C(=O)Nc1ccc(-c2nc(NC(=O)c3cccc(OC(F)(F)F)c3)n(C)n2)cc1 | 75
CC(C)c1ccccc1N1C(=O)CS/C1=N\C(=O)Nc1ccc(-c2nc(Nc3ccc(OC(F)(F)F)cc3)n(C)n2)cc1 [EP3974414 I-001, reference compound] | 0
